Species: Homo sapiens
run-description: Selectivity ratio of Ki for human delta opioid receptor to Ki for human mu opioid receptor
endpoint-name: Ratio Ki
Lab note: record just the number, no unit beside it.

Query: Dear colleague, please send me the reported Ratio Ki for `COc1ccc(Nc2ccc3c(c2)[C@@]24CCCC[C@H]2[C@@H](C3)N(CC2CCC2)CC4)cc1` when you can.
Response: 3

Query: Dear colleague, please send me the reported Ratio Ki for `O=C(Nc1ccccc1)Nc1ccc2c(c1)[C@@]13CCCC[C@H]1[C@@H](C2)N(CC1CC1)CC3` when you can.
Response: 4

Query: Dear colleague, please send me the reported Ratio Ki for CCCCC(O)c1cc2c(cc1O)[C@@]13CCCC[C@H]1[C@@H](C2)N(CC1CCC1)CC3 (mixture of isomers) when you can.
Response: 6

Query: Dear colleague, please send me the reported Ratio Ki for `CN1CC[C@]23CCCC[C@H]2[C@H]1Cc1ccc(OC(=O)Nc2ccc(I)cc2)cc13` when you can.
Response: 4

Query: Dear colleague, please send me the reported Ratio Ki for `O=C(Nc1ccc(I)cc1)Oc1ccc2c(c1)[C@@]13CCCC[C@H]1[C@@H](C2)N(CC1CC1)CC3` when you can.
Response: 24

Query: Dear colleague, please send me the reported Ratio Ki for `Ic1ccc(CN(Cc2ccc(I)cc2)c2ccc3c(c2)[C@@]24CCCC[C@H]2[C@@H](C3)N(CC2CCC2)CC4)cc1` when you can.
Response: 60

Query: Dear colleague, please send me the reported Ratio Ki for `Oc1cc2c(cc1CNCCCCNCc1cc3c(cc1O)[C@@]14CCCC[C@H]1[C@@H](C3)N(CC1CCC1)CC4)C[C@@H]1[C@@H]3CCCC[C@]23CCN1CC1CCC1` when you can.
Response: 28

Query: Dear colleague, please send me the reported Ratio Ki for `COc1ccc(Nc2ccc3c(c2)[C@@]24CCCC[C@H]2[C@@H](C3)N(CC2CC2)CC4)cc1` when you can.
Response: 65

Query: Dear colleague, please send me the reported Ratio Ki for `COc1ccc(CN(Cc2ccc(OC)cc2)c2ccc3c(c2)[C@@]24CCCC[C@H]2[C@@H](C3)N(CC2CC2)CC4)cc1` when you can.
Response: 48

Query: Dear colleague, please send me the reported Ratio Ki for `c1ccc(Nc2ccc3c(c2)[C@@]24CCCC[C@H]2[C@@H](C3)N(CC2CCC2)CC4)cc1` when you can.
Response: 2

Query: Dear colleague, please send me the reported Ratio Ki for Oc1cc2c(cc1C(O)CCCCCCCCCCC(O)c1cc3c(cc1O)[C@@]14CCCC[C@H]1[C@@H](C3)N(CC1CCC1)CC4)C[C@@H]1[C@@H]3CCCC[C@]23CCN1CC1CCC1 (mixture of isomers) when you can.
Response: 24

Query: Dear colleague, please send me the reported Ratio Ki for `CN1CC[C@]23CCCC[C@H]2[C@H]1Cc1ccc(NC(=O)Nc2ccccc2)cc13` when you can.
Response: 29

Query: Dear colleague, please send me the reported Ratio Ki for `c1ccc(CNc2ccc3c(c2)[C@@]24CCCC[C@H]2[C@@H](C3)N(CC2CCC2)CC4)cc1` when you can.
Response: 76

Query: Dear colleague, please send me the reported Ratio Ki for `O=C(Nc1ccc(I)cc1)Oc1ccc2c(c1)[C@@]13CCCC[C@H]1[C@@H](C2)N(CC1CCC1)CC3` when you can.
Response: 68

Query: Dear colleague, please send me the reported Ratio Ki for `COc1ccc(CNc2ccc3c(c2)[C@@]24CCCC[C@H]2[C@@H](C3)N(CC2CC2)CC4)cc1` when you can.
Response: 65

Query: Dear colleague, please send me the reported Ratio Ki for `c1ccc(CNc2ccc3c(c2)[C@@]24CCCC[C@H]2[C@@H](C3)N(CC2CC2)CC4)cc1` when you can.
Response: 112

Query: Dear colleague, please send me the reported Ratio Ki for `Ic1ccc(CNc2ccc3c(c2)[C@@]24CCCC[C@H]2[C@@H](C3)N(CC2CCC2)CC4)cc1` when you can.
Response: 35

Query: Dear colleague, please send me the reported Ratio Ki for `CN1CC[C@]23CCCC[C@H]2[C@H]1Cc1ccc(NC(=O)Nc2ccc(I)cc2)cc13` when you can.
Response: 18

Query: Dear colleague, please send me the reported Ratio Ki for `CCN(CCCCN(CC)Cc1cc2c(cc1O)[C@@]13CCCC[C@H]1[C@@H](C2)N(CC1CCC1)CC3)Cc1cc2c(cc1O)[C@@]13CCCC[C@H]1[C@@H](C2)N(CC1CCC1)CC3` when you can.
Response: 7

Query: Dear colleague, please send me the reported Ratio Ki for OCCCCCCCCCCC(O)c1cc2c(cc1O)[C@@]13CCCC[C@H]1[C@@H](C2)N(CC1CCC1)CC3 (mixture of isomers) when you can.
Response: 23

Query: Dear colleague, please send me the reported Ratio Ki for `CCN(CCCCCCN(CC)Cc1cc2c(cc1O)[C@@]13CCCC[C@H]1[C@@H](C2)N(CC1CCC1)CC3)Cc1cc2c(cc1O)[C@@]13CCCC[C@H]1[C@@H](C2)N(CC1CCC1)CC3` when you can.
Response: 13

Query: Dear colleague, please send me the reported Ratio Ki for `c1ccc(Nc2ccc3c(c2)[C@@]24CCCC[C@H]2[C@@H](C3)N(CC2CC2)CC4)cc1` when you can.
Response: 68

Query: Dear colleague, please send me the reported Ratio Ki for Oc1cc2c(cc1C(O)CCCCC(O)c1cc3c(cc1O)[C@@]14CCCC[C@H]1[C@@H](C3)N(CC1CCC1)CC4)C[C@@H]1[C@@H]3CCCC[C@]23CCN1CC1CCC1 (mixture of isomers) when you can.
Response: 24

Query: Dear colleague, please send me the reported Ratio Ki for `O/N=C\c1cc2c(cc1O)[C@@]13CCCC[C@H]1[C@@H](C2)N(CC1CCC1)CC3` when you can.
Response: 47

Query: Dear colleague, please send me the reported Ratio Ki for `O=C(Nc1ccc(I)cc1)Nc1ccc2c(c1)[C@@]13CCCC[C@H]1[C@@H](C2)N(CC1CCC1)CC3` when you can.
Response: 4

Query: Dear colleague, please send me the reported Ratio Ki for `Oc1cc2c(cc1CNCCCCCCNCc1cc3c(cc1O)[C@@]14CCCC[C@H]1[C@@H](C3)N(CC1CCC1)CC4)C[C@@H]1[C@@H]3CCCC[C@]23CCN1CC1CCC1` when you can.
Response: 12

Query: Dear colleague, please send me the reported Ratio Ki for `O=C(CCCCC(=O)NCc1cc2c(cc1O)[C@@]13CCCC[C@H]1[C@@H](C2)N(CC1CCC1)CC3)NCc1cc2c(cc1O)[C@@]13CCCC[C@H]1[C@@H](C2)N(CC1CCC1)CC3` when you can.
Response: 21

Query: Dear colleague, please send me the reported Ratio Ki for `O=C(Nc1ccc(I)cc1)Nc1ccc2c(c1)[C@@]13CCCC[C@H]1[C@@H](C2)N(CC1CC1)CC3` when you can.
Response: 4

Query: Dear colleague, please send me the reported Ratio Ki for `Oc1cc2c(cc1CNCCCCCCCCNCc1cc3c(cc1O)[C@@]14CCCC[C@H]1[C@@H](C3)N(CC1CCC1)CC4)C[C@@H]1[C@@H]3CCCC[C@]23CCN1CC1CCC1` when you can.
Response: 42

Every entry's value here was drawn from ChEMBL document CHEMBL1156775.
